- protocolText: yeast display, Sf9 membrane polyspecificity reagent, FACS + sequencing; frameworks hold sequencing errors
endpoint: polyreactivity (PSR sort gate)

[[record]]
macromoleculesequence = "QVQLVESGGGLVQAGGSLRLSCAASGRTFRRNAMGWYRQAPGKERELVAAISWRGVSTYYADSVKGRFTISRDNAKNTVYLQMNSLKPEDTAVYYCAVDFLYTRRDYWGQGTQVTVSS"
endpoint = "polyreactivity (PSR sort gate)"
testresult = "high polyreactivity"

[[record]]
macromoleculesequence = "QVQLVESGGGLVQAGGSLRLSCAASGSTFEYNAMGGYRQAPGKERELVASSTNYADSVKGRFTISRDNAKKTVYLQMTSLKPEDTAVYYCAREQGVNRNHDYWGQGTQVTVSS"
endpoint = "polyreactivity (PSR sort gate)"
testresult = "low polyreactivity"

[[record]]
macromoleculesequence = "QDQLVESGGGLVQAGGSLRLSCAASGLTFGRYAMGWYRQAPGKERELVAAITWNGDGTYYADSVKGRFTISRDNAKNTVYLQMNSQKPEDSAVFYCAADYYTYLYGRYNYWGQGTQVTVSS"
endpoint = "polyreactivity (PSR sort gate)"
testresult = "low polyreactivity"

[[record]]
macromoleculesequence = "QVQLVESGGGLVQAGGSLRLSCAASGSIFVINPMGWYRPAPGKERELVATIRARAGSTYYADSVKGRFTISRDNAKNSVYLQMNSLKPEDTAVYYCAARLKSYRVDYWGQGTQVTVSS"
endpoint = "polyreactivity (PSR sort gate)"
testresult = "high polyreactivity"

[[record]]
macromoleculesequence = "QVQLVESGGGLVQAGGSLRLSCAASAFILYRYAMGWYRQAPGKERELVAAISRTGGSTYYADSVKGRFTISRDNAKNTVYLQMNSLKPEDTAVYYCNARSSYGLSYRQYGYWGQGTQVTVSS"
endpoint = "polyreactivity (PSR sort gate)"
testresult = "high polyreactivity"

[[record]]
macromoleculesequence = "QVQLVESGGGLVQAGGSLRLSCAASGGIFPFYAMGWDRQAPGKERELVAVITSSGGSTFYSDSVKGRFTISRDNAKNTVYLQMNSLKPEDTAVYYGNARRVSREIWYGATGNDYWGQGTQGTVSS"
endpoint = "polyreactivity (PSR sort gate)"
testresult = "low polyreactivity"


## Task I am curious: what polyreactivity (PSR sort gate) value has been reported for QVQLVESGGGLVQAGGSLRFSCAASGTFVPYAMGWYRQAPGKEMELVARITWRGGSTYYADSVKGRFTISRDNANNTVYLQMNSLKPEETAVYYCATVSDNRYYYWGQGTQVTVSS ?
## Result low polyreactivity

## Task Looking for the measured polyreactivity (PSR sort gate) of QDQLVESGGGLVQAGGSLRLSCAASGFIFKYYAMGWYRQAPGKVRELVAVISISGGSTYYADSVKGRLTISRDNAKNTVYLQMNSLKPEDTAVYYCNVYWRRTSTLAFDYCGQGTQVTVSS , can you help?
## Result high polyreactivity

## Task What does the record list as polyreactivity (PSR sort gate) for QVQLVESGGGLVQAGGSLRLTCAASGSIFWRNTMGWYRQAPGKERELVAAIRNVGSTYYADSVKGRFTISRDNAKNTVYLQMNSLKPEDTAVYYCAVVYPARGSGNDSWGQGSQVTVSS ?
## Result high polyreactivity

## Task # polyreactivity (PSR sort gate) lookup, item QVQLVESGGGLVQAGGRLRLSCAASGSTFVLNDRGWYRQPPGKEREFVAAIDTSGGTTSYADSVKGRFTISRDNAKNTVYLQMNSLKPEDTAVYYCAALWFTRVHLFDSWGQGPQVTVSS
## Result low polyreactivity

## Task Find the recorded polyreactivity (PSR sort gate) belonging to QVQLVESGGGLVQAGGSLRISCAASGSTFFLYAMGWYRQAPGKERELVAAISTTGGSTNYADSVKGRFTISRDNAKYTFELQINSLKPEDTAVYYCAAGPSAQSIYDHWGQGTQVTVSS and report it.
## Result low polyreactivity

====

- protocolText: yeast display, Sf9 membrane polyspecificity reagent, FACS + sequencing; frameworks hold sequencing errors
endpoint: polyreactivity (PSR sort gate)

[[record]]
macromoleculesequence = "QVQLVESGGGLVQAGGSLRLSCAASGITFYYYVMGWYRQAHGKERELVAAISNRGGSTYYADSVKGRFTISRDNAKNTVYLQMNSLKPDDTAVYYCAAYPLSGYDYWGQGTQVTVSS"
testresult = "high polyreactivity"

[[record]]
macromoleculesequence = "QVQLVESGGGLVQAGGSLRISCAASGRIFTTYAMGWYRQAPGKEREFVADITLSGSSTYYADSVKGRFTISRDNAKNTVYLQMNSLKPEDTAVYYCAARTGRYYRRYDYWGQGTQETVSS"
testresult = "high polyreactivity"

[[record]]
macromoleculesequence = "QVQLVESGGGLVQAGGSLRLSCAASGRIFGPYVMGWYRQAPGKERELVAAISTSGTSTYYADSVKGRFTISRDNAKNTVYLQMNSLKPEDTAVYYCAKRSGARHRLMDYWGQGTQVTVSS"
testresult = "low polyreactivity"

[[record]]
macromoleculesequence = "QVQLVESGGGLVQAGLTLRLSCAASGRIFYPYAMVWYRQAPGKERELVAYNTRSGGSTRYADSVKGRFTISRDNAKNTLYLQMNSLITEDTAVDYCAARTWGRRSSSWGGYYWGQGTQVTVSS"
testresult = "high polyreactivity"

[[record]]
macromoleculesequence = "QVQLVESGGGLVQAGGSLRLSCAASGRIFYNYAMGWYRQAPGKERELVAAITGGASTYADSVKGRFTISRDNAKNTVYLQMNSLKPEDTAVYYCAVDYYTYSLASGRTRMDYWGQGTQVTVSS"
testresult = "high polyreactivity"

[[record]]
macromoleculesequence = "QVQLVESGGGLLQAGGSLRLSCAASGRIFYSNAMGWYRQAPGKERELVATRTRRGGGTYYADSVKGRFTISRDNAKNSVYLQMNSLKPVDTAVYSCNAYDILPGGNFWYWYGSWGQGTQVTVSS"
testresult = "high polyreactivity"


## Task GET /values?readout=polyreactivity (PSR sort gate)&item= QVQLVESGGGLVQAGGSLRLSCAASGGTFYSYAMGWYRQAPGKEREFVAAITYGGGSTYYADSEKGRFTISRDNAKNSVYLQKNSLKPEDTAVYYCNARRYGSRLGERYYYWGQGTQVTVSS
## Result high polyreactivity

## Task // lookup polyreactivity (PSR sort gate) for QVHLVDSGGGLVQAGGSLRLSCAAYGSTFHPYAMGWYRQAPGKERELVADITSSGSTHYADSVKGRFTISRDNAKNTVYLQMNSLKPEDTAVYYCAAGIPWASDSGDPSFEYWGQGTEVTVSS
## Result low polyreactivity

## Task Given QVQLVESGGGLVQAGGSLRVSCAASGRTFYRKAMGWYRHAPGKERSLVAAISSGGSTTYADSVKGRFTISRDNAKNTVYLQMISLKPEDTAVYYCAARSHAGSVCPRLKEYDFWGQGTQVTVSS , state its recorded polyreactivity (PSR sort gate).
## Result low polyreactivity

## Task Which polyreactivity (PSR sort gate) reading was recorded for the sequence QVQLVESGVGLVQAGGSLRLSCAASGFIFYYYAMGWYRQAPGKERELVAAISTDGGSTYYADSVKGRFTISRDNAKNTVYLQMNSLKPEDTAVYYCNAPYYGWGYWPLEYIRYEYWGQGTQVTVST ?
## Result low polyreactivity

## Task Need polyreactivity (PSR sort gate) of QVQLVESGGGLVPAGGSLRLSCAASGFIYWYAMGWYRQAPGKETELVAAITWSGGSTYADSVKGRFTISRDNAKNTVYLQMNCLKPEDSAVYYCAADKYSQWSSHTRVRYDYWGQGTQETVSS , thanks.
## Result low polyreactivity

====

- protocolText: yeast display, Sf9 membrane polyspecificity reagent, FACS + sequencing; frameworks hold sequencing errors
endpoint: polyreactivity (PSR sort gate)

Solved entries:
[[record]]
macromoleculesequence = "QVQLVESGGGLVQAGGSLRLSCAASGLIFYTYAMGWYRQAPGIERELVATISKRDGGTYYADSVKGRFTISRDNAKNTVYLQMNSLKPEDTAVYYCDAERSYSYWAYDYWGQGTQVTVSS"
testresult = "high polyreactivity"

[[record]]
macromoleculesequence = "QVQLVESGGGLVQAGGSHRLSCAASGRTFGYYAMGWYRQAPGKEREFVAAISWSGGSTYYADTVKGRFTISRDNAKNTVYLEMNSLKPEYTAVYYCATDTTYYAGSWYGYWGQGTQVTVSS"
testresult = "low polyreactivity"

[[record]]
macromoleculesequence = "QVQLVESGGGLVQAGGSLRLSCAASGSTLVIYAMGWYRQAPGKERELVAAISRGGTTYYADSVKGRFTISRDNAKNTVYLQMNSLKPEDTAVYYCAADARVKRYYFRKSGYWGQGTQVTVSS"
testresult = "high polyreactivity"

[[record]]
macromoleculesequence = "QVQLVESGGGLVQAGGSLRLSCAASGGIFDDYAMGWYRQAPGKERELVAAISSSGGSTYYADSVKGRFTISRDNAKNTVYLQMNSLKPEDTAVYYCNADRRRRFGYWGQGTQVTVSS"
testresult = "high polyreactivity"


## Task For QVQLVESGGGLDQAGGSLRLSCAASGSTFRNNAMGWYRQAPGKERELVAAISRGGGSTYYADSVKGRFTISRDNAKNNVYLQMTSLKQDDTAVYDCARRPTGIYDYWGQGTQVTVSS , what is its reported polyreactivity (PSR sort gate)?
## Result high polyreactivity

## Task I'd like to know its polyreactivity (PSR sort gate). The sequence in question is QVQLVESGGGLVQAGGSLRLSCAASGFIFYNYAMGWYRQAPGKERELVAAISASGGRTYYADSVKGRFTISRDNAKNTVYLQMNRLKPEETAVYYCNARVNYKGYDYWGQGTQVTVSS
## Result high polyreactivity

## Task Request the reported polyreactivity (PSR sort gate) associated with QVQLVESCGGLVQAGGSLRLSCAASRLIFGYYAMGWYRQAPVKERELVASISSGGRTYYADSVKGRFTISRDNAKNTVNLQMNSLKPEDTAVYYCNAVKGWFVYEYDYWGQGTQVTVSS
## Result low polyreactivity

## Task Please report the recorded polyreactivity (PSR sort gate) for QVQLVESGGGLVQAGGSLRLSCAASGSTIRHYAMGWYRQAPGKERELVAAISSGARTYYADSVKGRFTISRDNAKNTVYLQMNSLKPEDTAVYYCAARYNGYAYPYYYWGQGTQVTVSS .
## Result high polyreactivity

## Task polyreactivity (PSR sort gate) for QVHLVESGGGLVQAGGSLRLSCAASGRLSQNAMGGYRQAPGKERELVAAITFSGGSTYYADSVKGRFTISRDNAKNTVYLQMNSLKPEDTAVYYCAADDRPLYWRFPDEMDYWGQGTQVTVSS ?
## Result low polyreactivity

## Task // lookup polyreactivity (PSR sort gate) for QVQLVESGGGLVQAGGSLRLSCAASGFTFTTYVMGWSRQAPGKERELVAAISRRGTSTRYADSVKGRFTISRDNAKNTVYLQMNSLIPEDTAVYYCAADRPYSIVPYDYWGQGTQVTVSS
## Result high polyreactivity

## Task Any idea what polyreactivity (PSR sort gate) was measured for QVQLVESGGGLVQAGGSLRLTCAASGSIFPFYAKGWYRQATGKERELVAAISDSGGDTYYADSVKGRFTISRDNAKNTVYLQMNSLKPEDTAVYYCAADCFYNSFNYWGQGTQVTVSS ?
## Result low polyreactivity
